- ASSAY DETAILS: Selectivity index, ratio of CC50 for human Huh7.5 cells to EC50 for Hepatitis C virus JFH-1 J6 genotype 2a infected in human Huh7.5 cells
- Format: toxicity, cell-based, Huh-7
- CONDITION LABEL: read-out: Ratio CC50/EC50
OBSERVATION TYPE: selectivity ratio

COMPOUND: CCOC(=O)/C(C)=C/c1c[nH]c2ccccc12
OBSERVATION TYPE: selectivity ratio
DATA VALUE: 1.1

I have this compound here, `C/C(=C\c1c[nH]c2ccccc12)C(=O)NCCCn1ccnc1` , and I need its recorded selectivity ratio. > 3

Could you tell me which selectivity ratio is on file for `C/C(=C\c1c[nH]c2cc(Br)ccc12)C(=O)Nc1ccc(C(C)(C)C)cc1` ? 5.3

// lookup selectivity ratio for `CC(C)(C)c1ccc(NC(=O)/C=C/c2c[nH]c3ccccc23)cc1` 5.2

----------
- ASSAY DETAILS: Ratio of cytotoxicity against human Huh7.5 cells assessed as cell viability to antiviral activity against Hepatitis C virus JFH-1 J6 genotype 2a infected in human Huh7.5 cells assessed as inhibition of viral RNA replication
- Type: toxicity, cell-based, Huh-7
The following compounds are shown together with reported selectivity ratio values.
Please respond with just the number, no unit label.

Consider the worked cases shown below.
TEST SMILES: COc1ccc(CNC(=O)/C=C/c2c[nH]c3ccccc23)cc1OC
OBSERVATION TYPE: selectivity ratio
DATA VALUE: 2.6

TEST SMILES: O=C(/C=C/c1c[nH]c2ccccc12)N1CCN(Cc2ccc(C(F)(F)F)cc2)CC1
OBSERVATION TYPE: selectivity ratio
DATA VALUE: 2.5

TEST SMILES: CCN(CC)C(=O)/C=C/c1c[nH]c2ccccc12
OBSERVATION TYPE: selectivity ratio
DATA VALUE: 1.3

Param item = `CC(C)NC(=O)/C=C/c1c[nH]c2ccccc12` ; retrieve measured selectivity ratio. 1.5

Record request: selectivity ratio value, item `Clc1ccc(Cn2c(CN3CCCC3)nc3ccccc32)cc1` 4.3

For `CC(C)(C)c1ccc(NC(=O)/C=C/c2c[nH]c3ccccc23)cc1` , what is its reported selectivity ratio? 28.6

----------
- ASSAY DETAILS: Selectivity index, ratio of CC50 for human Huh7.5 cells to EC50 for Hepatitis C virus JFH-1 J6 genotype 2a infected in human Huh7.5 cells
- Type: toxicity, cell-based, Huh-7
- CONDITION LABEL: read-out: Ratio CC50/EC50
Below is a list of entries, each paired with its recorded selectivity ratio value.
// no unit string in output, number only

Past entries and their recorded results:
TEST SMILES: COc1ccc2[nH]cc(/C=C(\C)C(=O)Nc3ccc(C(C)(C)C)cc3)c2c1
DATA VALUE: 5.5
//
TEST SMILES: C/C(=C\c1c[nH]c2cc(C)ccc12)C(=O)Nc1ccc(C(C)(C)C)cc1
DATA VALUE: 5.7
//
TEST SMILES: C/C(=C\c1c[nH]c2cc(C(C)C)ccc12)C(=O)Nc1ccc(C(C)(C)C)cc1
DATA VALUE: 17
//
TEST SMILES: C/C(=C\c1c[nH]c2ccc(C)cc12)C(=O)Nc1ccc(C(C)(C)C)cc1
DATA VALUE: 4.2
//
TEST SMILES: C/C(=C\c1c[nH]c2ccccc12)C(=O)NCc1ccco1
DATA VALUE: 3.5
//
TEST SMILES: COc1ccc(CNC(=O)/C=C/c2c[nH]c3ccccc23)cc1OC
DATA VALUE: 6.9
//
TEST SMILES: COc1cccc2[nH]cc(/C=C(\C)C(=O)Nc3ccc(C(C)(C)C)cc3)c12
DATA VALUE: 1.9
//
TEST SMILES: C/C(=C\c1c[nH]c2ccccc12)C(=O)Nc1ccc(C(F)(F)F)cc1
DATA VALUE: 2.2

--- query ---
selectivity ratio for `COc1ccc2c(/C=C(\C)C(=O)Nc3ccc(C(C)(C)C)cc3)c[nH]c2c1` ? 3.5

----------
Below is a list of entries, each paired with its recorded viability at 72 h, 10 µM value.
- ASSAY DETAILS: Cytotoxicity against human Huh7.5 cells assessed as cell viability at 10 uM after 72 hrs by MTT assay relative to control
- Format: cell-based, Huh-7
- CONDITION LABEL: read-out: Activity
Number in %, nothing else.

Look over these answered cases.
MOLECULE: COc1ccc(CNC(=O)/C=C/c2c[nH]c3ccccc23)cc1OC
viability at 72 h, 10 µM [%]: 92.2
--
MOLECULE: O=C(/C=C/c1c[nH]c2ccccc12)N1CCN(Cc2ccc(C(F)(F)F)cc2)CC1
viability at 72 h, 10 µM [%]: 81.7
--
MOLECULE: CCN(CC)C(=O)/C=C/c1c[nH]c2ccccc12
viability at 72 h, 10 µM [%]: 93.8
--
MOLECULE: Clc1ccc(Cn2c(CN3CCCC3)nc3ccccc32)cc1 [CLEMIZOLE]
viability at 72 h, 10 µM [%]: 102
--
MOLECULE: CC(C)NC(=O)/C=C/c1c[nH]c2ccccc12
viability at 72 h, 10 µM [%]: 106

Next item in the queue.
So what's the measured viability at 72 h, 10 µM for this one? `CC(C)(C)c1ccc(NC(=O)/C=C/c2c[nH]c3ccccc23)cc1` 60.1

----------
- ASSAY DETAILS: Cytotoxicity against human Huh7.5 cells assessed as cell viability after 72 hrs by MTT assay
- Assay type: cell-based, Huh-7
OBSERVATION TYPE: CC50 at 72 h (µM)
Express your answer in µM, writing the number without its unit.

Some compounds with recorded CC50 at 72 h:
COMPOUND: Clc1ccc(Cn2c(CN3CCCC3)nc3ccccc32)cc1 [CLEMIZOLE]
RESULT UNIT: µM
CC50 at 72 h: 39.4
--
COMPOUND: C/C(=C\c1c[nH]c2ccccc12)C(=O)Nc1ccc(C(F)(F)F)cc1
RESULT UNIT: µM
CC50 at 72 h: 94.9
--
COMPOUND: CC(C)(C)c1ccc(NC(=O)CCc2c[nH]c3ccccc23)cc1
RESULT UNIT: µM
CC50 at 72 h: 13.6
--
COMPOUND: COc1cccc2[nH]cc(/C=C(\C)C(=O)Nc3ccc(C(C)(C)C)cc3)c12
RESULT UNIT: µM
CC50 at 72 h: 34.1
--
COMPOUND: C/C(=C\c1c[nH]c2ccc(C)cc12)C(=O)Nc1ccc(C(C)(C)C)cc1
RESULT UNIT: µM
CC50 at 72 h: 28.1
--
COMPOUND: COc1ccc2c(/C=C(\C)C(=O)Nc3ccc(C(C)(C)C)cc3)c[nH]c2c1
RESULT UNIT: µM
CC50 at 72 h: 30.7

What CC50 at 72 h value was documented for this compound, `C/C(=C\c1c[nH]c2ccc([N+](=O)[O-])cc12)C(=O)Nc1ccc(C(C)(C)C)cc1` ? 23.1

# lookup: CC50 at 72 h of `C/C(=C\c1c[nH]c2ccccc12)C(=O)NCc1ccco1` 39.1

----------
- Tested on: Hepatitis C virus
- ASSAY DETAILS: Antiviral activity against Hepatitis C virus JFH-1 J6 genotype 2a infected in human Huh7.5 cells assessed as inhibition of viral RNA replication after 72 hrs by luciferase reporter gene assay
- Type: functional, organism-based, Hepacivirus hominis
- CONDITION LABEL: subtype 2a JFH1 J6, Huh-7, 72 h
pEC50: −log10 of the molar value.
OBSERVATION TYPE: pEC50

TEST SMILES: C/C(=C\c1c[nH]c2ccccc12)C(N)=O
TARGET SYSTEM: Hepatitis C virus
pEC50: < 5.00
--
TEST SMILES: C/C(=C\c1c[nH]c2ccc(C#N)cc12)C(=O)Nc1ccc(C)cc1
TARGET SYSTEM: Hepatitis C virus
pEC50: < 4.00

// below: pEC50 requested for another compound
Record request: pEC50 value, item `CCOC(=O)/C(C)=C/c1c[nH]c2ccccc12` 4.65

----------
- ASSAY DETAILS: Selectivity index, ratio of CC50 for human Huh7.5 cells to EC50 for Hepatitis C virus JFH-1 J6 genotype 2a infected in human Huh7.5 cells
- Type: toxicity, cell-based, Huh-7
- CONDITION LABEL: read-out: Ratio CC50/EC50
OBSERVATION TYPE: selectivity ratio

Sample answers from the record:
TEST SMILES: Clc1ccc(Cn2c(CN3CCCC3)nc3ccccc32)cc1
selectivity ratio: 4.9
--
TEST SMILES: C/C(=C\c1c[nH]c2ccccc12)C(=O)Nc1ccc(C(C)(C)C)cc1
selectivity ratio: 7.9
--
TEST SMILES: C/C(=C\c1c[nH]c2ccc([N+](=O)[O-])cc12)C(=O)Nc1ccc(C(C)(C)C)cc1
selectivity ratio: 3.7
--
TEST SMILES: C/C(=C\c1c[nH]c2ccc(C#N)cc12)C(=O)Nc1ccc(C(C)C)cc1
selectivity ratio: 3.6
--
TEST SMILES: C/C(=C\c1c[nH]c2ccccc12)C(=O)NCCN(C)C
selectivity ratio: > 1.6

Request the reported selectivity ratio associated with `C/C(=C\c1c[nH]c2ccc(C#N)cc12)C(=O)Nc1ccc(C(C)(C)C)cc1` 56.9

Source: ChEMBL document CHEMBL3120069
